Just for reference, ChEMBL document CHEMBL1156315 is where these values come from.

# target_or_test_system: Gamma-secretase
# assay: Inhibition of gamma-secretase-mediated notch cleavage in human SNC cells by ELISA
# Assay type: cell-based
pIC50: −log10 of the molar value.
Criterion: pIC50 meeting or surpassing 5. Met: True. Not met: False.

O=S(=O)(c1ccc(Cl)cc1)N1Cc2c[nH]nc2CC1c1ccccc1 (centres undefined) :: True
CC[C@H]1Cc2n[nH]cc2[C@@H](CC)N1S(=O)(=O)c1ccc(Cl)cc1 [ENT A] :: True
CCOC(=O)C1Cc2n[nH]cc2CN1S(=O)(=O)c1ccc(Cl)cc1 (centres undefined) :: False
O=S(=O)(c1ccc(Cl)cc1)N1Cc2cn[nH]c2CC1c1ccc(F)cc1 (racemic) :: True
CC[C@H]1Cc2n[nH]cc2[C@@H](CC)N1S(=O)(=O)c1ccc(Cl)cc1 (racemic) [ENT A] :: True

Entry O=S(=O)(c1ccc(Cl)cc1)N1Cc2c[nH]nc2CC1c1nccs1 (racemic) : is its pIC50 no less than 5?
False

Entry CC[C@@H]1c2c[nH]nc2C[C@H](c2ccc(Cl)cc2)N1S(=O)(=O)c1ccc(Cl)cc1 (racemic) : is its pIC50 no less than 5?
False

Entry CC[C@H]1Cc2n[nH]cc2[C@@H](c2ccc(Cl)cc2)N1S(=O)(=O)c1ccc(Cl)cc1 (racemic) : is its pIC50 no less than 5?
True

* * *

# target_or_test_system: Gamma-secretase
# assay: Inhibition of gamma-secretase-mediated APP cleavage in human IMR-32 cells assessed as amyloid beta40 level after 2 hrs by ELISA
# Assay type: cell-based
parameter: pIC50
Value format note: pIC50 is -log10 of concentration (mol/L); just state the number.

Examples with their reported pIC50 follow.
O=S(=O)(c1ccc(Cl)cc1)N1Cc2cn[nH]c2CC1c1cccc(F)c1 (racemic) :: 8.08
O=S(=O)(c1ccc(Cl)cc1)N1CCc2[nH]ncc2C1c1cncnc1 (stereo not given) :: 7.92
O=S(=O)(c1ccc(Cl)cc1)N1Cc2c[nH]nc2CC1c1nccs1 (racemic) :: 6.61
C[C@@H]1CCC[C@H](C)N1S(=O)(=O)c1ccc(Cl)cc1 :: 6.00
O=S(=O)(c1ccc(Cl)cc1)N1Cc2c[nH]nc2CC1Cc1ccccc1 (racemic) :: 7.09
CC[C@H]1Cc2n[nH]cc2CN1S(=O)(=O)c1ccc(Cl)cc1 (racemic) :: 9.00

Give the value of pIC50 reported for the following: CC[C@H]1Cc2n[nH]cc2[C@@H](CC)N1S(=O)(=O)c1ccc(Cl)cc1 [ENT A]
9.46

Give the value of pIC50 reported for the following: CCCC1CCCCN1S(=O)(=O)c1ccc(Cl)cc1 (racemic)
5.77

Give the value of pIC50 reported for the following: O=S(=O)(c1ccc(Cl)cc1)N1Cc2c[nH]nc2CC1c1cc(F)cc(F)c1 (racemic)
8.01

Give the value of pIC50 reported for the following: O=S(=O)(c1ccc(Cl)cc1)N1Cc2c[nH]nc2CC1c1cncnc1 (stereo not given)
6.27

* * *

Each entry below lists one item and its recorded log10(IC50) value.
# target_or_test_system: Gamma-secretase
# assay: Inhibition of gamma-secretase-mediated notch cleavage in human IMR-32 cells after 2 hrs by ELISA
# Assay type: cell-based
Answers are given as log10 of IC50 in nM.

Examples with their reported log10(IC50) follow.
CC[C@H]1Cc2n[nH]cc2[C@@H](c2ccc(Cl)cc2)N1S(=O)(=O)c1ccc(Cl)cc1 (racemic) :: 1.88
O=S(=O)(c1ccc(Cl)cc1)N1Cc2cn[nH]c2CC1c1ccc(Cl)cc1 (racemic) :: 2.49

Give the value of log10(IC50) reported for the following: O=S(=O)(c1ccc(Cl)cc1)N1Cc2c[nH]nc2CC1c1nccs1 (racemic)
3.76

Give the value of log10(IC50) reported for the following: O=S(=O)(c1ccc(Cl)cc1)N1Cc2c[nH]nc2CC1c1ccccc1 (stereo not given)
2.78

Give the value of log10(IC50) reported for the following: O=S(=O)(c1ccc(Cl)cc1)N1Cc2c[nH]nc2CC1c1cc(F)cc(F)c1 (racemic)
2.89

Give the value of log10(IC50) reported for the following: O=S(=O)(c1ccc(Cl)cc1)N1Cc2c[nH]nc2CC1Cc1ccccc1 (racemic)
3.19

Give the value of log10(IC50) reported for the following: O=S(=O)(c1ccc(Cl)cc1)N1Cc2c[nH]nc2CC1c1cncnc1 (stereo not given)
4.02

* * *

# target_or_test_system: Gamma-secretase (Homo sapiens) (UniProt Q96BI3+Q9NZ42+Q8WW43+P49768+Q92542+P49810)
# assay: Inhibition of gamma-secretase-mediated APP cleavage in human SNC cells by ELISA
# Type: cell-based
ED50 strictly less than 0.09 µM = condition met. Otherwise condition not met.

Completed entries (count: 5):
O=S(=O)(c1ccc(Cl)cc1)N1Cc2c[nH]nc2CC1c1cc(F)cc(F)c1 (racemic) :: condition met
O=S(=O)(c1ccc(Cl)cc1)N1Cc2c[nH]nc2CC1c1ccccc1 (stereo not given) :: condition met
CCOC(=O)C1Cc2n[nH]cc2CN1S(=O)(=O)c1ccc(Cl)cc1 (stereo not given) :: condition not met
O=S(=O)(c1ccc(Cl)cc1)N1Cc2c[nH]nc2CC1c1cccc(F)c1 (racemic) :: condition met
CC(C)C1Cc2n[nH]cc2CN1S(=O)(=O)c1ccc(Cl)cc1 (racemic) :: condition met

Determine if O=S(=O)(c1ccc(Cl)cc1)N1Cc2c[nH]nc2CC1c1ccc(Cl)cc1 (racemic) shows ED50 strictly lower than 0.09 µM.
condition met

Determine if O=S(=O)(c1ccc(Cl)cc1)N1CCc2n[nH]cc2C1c1cncnc1 (stereo not given) shows ED50 strictly lower than 0.09 µM.
condition met

Determine if O=S(=O)(c1ccc(Cl)cc1)N1Cc2c[nH]nc2CC1c1cncnc1 (stereo not given) shows ED50 strictly lower than 0.09 µM.
condition not met

Determine if O=S(=O)(c1ccc(Cl)cc1)N1Cc2c[nH]nc2CC1c1nccs1 (racemic) shows ED50 strictly lower than 0.09 µM.
condition not met

Determine if O=S(=O)(c1ccc(Cl)cc1)N1Cc2c[nH]nc2CC1c1ccc(F)cc1 (racemic) shows ED50 strictly lower than 0.09 µM.
condition met

* * *

# target_or_test_system: Gamma-secretase
# assay: Inhibition of gamma-secretase-mediated APP cleavage in human IMR-32 cells assessed as amyloid beta40 level after 2 hrs by ELISA
# Format: cell-based
parameter: IC50 (nM)
Please give a number only; it is taken to be in nM.

CCOC(=O)C1Cc2n[nH]cc2CN1S(=O)(=O)c1ccc(Cl)cc1 (configuration not stated) :: 431
O=S(=O)(c1ccc(Cl)cc1)N1Cc2c[nH]nc2CC1c1ccccc1 (configuration not stated) :: 7.7
O=S(=O)(c1ccc(Cl)cc1)N1Cc2cn[nH]c2CC1c1ccc(Cl)cc1 (racemic) :: 3.4
CC(C)C1Cc2n[nH]cc2CN1S(=O)(=O)c1ccc(Cl)cc1 (racemic) :: 16.1
O=S(=O)(c1ccc(Cl)cc1)N1CCc2n[nH]cc2C1c1nccs1 (racemic) :: 29.1

Give the value of IC50 reported for the following: O=S(=O)(c1ccc(Cl)cc1)N1CCc2n[nH]cc2C1CO (configuration not stated)
557

Give the value of IC50 reported for the following: CC[C@H]1Cc2n[nH]cc2[C@@H](c2ccc(Cl)cc2)N1S(=O)(=O)c1ccc(Cl)cc1 (racemic)
3.7

Give the value of IC50 reported for the following: O=S(=O)(c1ccc(Cl)cc1)N1Cc2cn[nH]c2CC1c1ccc(F)cc1 (racemic)
5.4

Give the value of IC50 reported for the following: CC[C@@H]1c2c[nH]nc2C[C@H](c2ccc(Cl)cc2)N1S(=O)(=O)c1ccc(Cl)cc1 (racemic)
22.4

Give the value of IC50 reported for the following: O=S(=O)(c1ccc(Cl)cc1)N1CCCCC1c1ccccc1 (racemic)
760

Give the value of IC50 reported for the following: `CC[C@H]1Cc2n[nH]cc2[C@@H](CC)N1S(=O)(=O)c1ccc(Cl)cc1.Cl`
62.6

* * *

# assay: Metabolic stability in human liver microsomes assessed as compound remaining after 30 mins in presence of 1 mM UDPGA, 100 mM MgCl2 and 25 ug/ml alamethacin
# Type: ADME, Microsome
# experimental_setup: liver microsomes, read-out: Stability
parameter: remaining at 0.5 h (%)
Please give a number only; it is taken to be in %.

Give the value of remaining at 0.5 h reported for the following: CCOC(=O)C1c2c[nH]nc2CCN1S(=O)(=O)c1ccc(Cl)cc1 (configuration not stated)
1

Give the value of remaining at 0.5 h reported for the following: O=S(=O)(c1ccc(Cl)cc1)N1Cc2cn[nH]c2CC1c1ccc(Cl)cc1 (racemic)
33

Give the value of remaining at 0.5 h reported for the following: CC[C@H]1Cc2n[nH]cc2[C@@H](c2ccc(Cl)cc2)N1S(=O)(=O)c1ccc(Cl)cc1 (racemic)
31
